Details: in ethanol, 288.15 K
value.kind: solubility (mole fraction)

Looking up "Oc1ccccc1C=Nc1c(F)cccc1F" , I found its solubility (mole fraction) recorded as 0.0103

###

Conditions: in chloroform, 303.15 K
value.kind: solubility (mole fraction)
Hey, just send me the number, nothing else.

For record "Oc1ccccc1C=Nc1c(F)cccc1F" the listed solubility (mole fraction) is 0.313

###

Details: in ethanol, 273.15 K
value.kind: solubility (mole fraction)

Entry "Oc1ccccc1C=Nc1c(F)cccc1F" ; solubility (mole fraction) = 0.00496

###

Conditions: in toluene, 303.15 K
value.kind: solubility (mole fraction)
# answer = number (no unit)

Entry "Oc1ccccc1C=Nc1c(F)cccc1F" ; solubility (mole fraction) = 0.251

###

Conditions: in acetonitrile, 278.15 K
value.kind: solubility (mole fraction)
Field format: numeric only.

Record summary for "Oc1ccccc1C=Nc1c(F)cccc1F" : reported solubility (mole fraction) = 0.0191

###

Conditions: in THF, 273.15 K
value.kind: solubility (mole fraction)
// print number alone

Noted for "Oc1ccccc1C=Nc1c(F)cccc1F" : its solubility (mole fraction) reads 0.161

###

Conditions: in toluene, 288.15 K
value.kind: solubility (mole fraction)

Entry under test: "Oc1ccccc1C=Nc1c(F)cccc1F" . Its solubility (mole fraction) was 0.149

###

Settings: in toluene, 278.15 K
value.kind: solubility (mole fraction)
Lab note: record the figure alone, no unit after it.

Sample "Oc1ccccc1C=Nc1c(F)cccc1F" ; solubility (mole fraction) observed: 0.105

###

Conditions: in chloroform, 298.15 K
value.kind: solubility (mole fraction)

solubility (mole fraction) reported for this compound "Oc1ccccc1C=Nc1c(F)cccc1F" : 0.27

###

Conditions: in toluene, 273.15 K
value.kind: solubility (mole fraction)
Would you mind answering with just the numeric figure?

response.value for "Oc1ccccc1C=Nc1c(F)cccc1F" (field: solubility (mole fraction)) = 0.0871

###

Details: in 1,2-dichloroethane, 278.15 K
value.kind: solubility (mole fraction)

For record "Oc1ccccc1C=Nc1c(F)cccc1F" the listed solubility (mole fraction) is 0.122

###

Conditions: in chloroform, 293.15 K
value.kind: solubility (mole fraction)
Give the figure only, with no unit attached.

Please fill in: solubility (mole fraction) reported for "Oc1ccccc1C=Nc1c(F)cccc1F" = 0.232

###

Conditions: in ethyl acetate, 303.15 K
value.kind: solubility (mole fraction)
Give a plain numeric answer without units written out.

solubility (mole fraction) reading for "Oc1ccccc1C=Nc1c(F)cccc1F" : 0.248

###

Conditions: in acetonitrile, 273.15 K
value.kind: solubility (mole fraction)

// recorded solubility (mole fraction) for "Oc1ccccc1C=Nc1c(F)cccc1F" : 0.0134

###

Settings: in ethanol, 278.15 K
value.kind: solubility (mole fraction)
The answer should be a number; do not append a unit.

The molecule "Oc1ccccc1C=Nc1c(F)cccc1F" showed solubility (mole fraction) equal to 0.00633

###

Conditions: in ethyl acetate, 273.15 K
value.kind: solubility (mole fraction)
Number only, no unit.

# solubility (mole fraction) (compound: "Oc1ccccc1C=Nc1c(F)cccc1F" ) is 0.0896

###

Conditions: in n-propanol, 293.15 K
value.kind: solubility (mole fraction)
The answer should be written as a number, with no unit following it.

Quick note, solubility (mole fraction) for "Oc1ccccc1C=Nc1c(F)cccc1F" landed at 0.0146

###

Settings: in acetonitrile, 303.15 K
value.kind: solubility (mole fraction)

So for "Oc1ccccc1C=Nc1c(F)cccc1F" , the logged solubility (mole fraction) turned out to be 0.106
